- PROTOCOL_TEXT: Photostationary state composition by LC-MS at isosbestic point
- CONDITIONS: DMSO 10 mM, after 434 ± 9 nm from PSS cis, LC-MS at isosbestic point
READOUT_TYPE: PSS trans (% trans) (%)
Give the number; % is assumed, so skip it.

Ask | Read the entry CC(C)(C)NCC(O)c1cc(Cl)c(/N=N/c2c(Cl)cccc2Cl)c(Cl)c1 (stereo not shown) [Compound 12d] and write its reported PSS trans (% trans).
Reply | 94.1

Ask | Read the entry CC(C)(C)NCC(O)c1ccc(/N=N/c2ccccc2)c(Cl)c1 (stereo not shown) [Compound 12c] and write its reported PSS trans (% trans).
Reply | 65.5

Ask | Read the entry CC(C)(C)NCC(O)c1ccc(/N=N/c2ccccc2)cc1 (stereo not shown) [Compound 12a] and write its reported PSS trans (% trans).
Reply | 71.8

Ask | Read the entry CC(C)(C)NCC(O)c1cc(Cl)c(/N=N/c2ccccc2)c(C#N)c1 (stereo not shown) [Compound 12e] and write its reported PSS trans (% trans).
Reply | 82.0

###

- PROTOCOL_TEXT: UV/vis absorption spectra before and after illumination
- Format: physicochemical
- CONDITIONS: n−π* transition, approximated from PSS cis composition; 25 μM in HBSS buffer containing 1% DMSO
READOUT_TYPE: λmax (nm) PSS cis
Give the number; nm is assumed, so skip it.

Ask | Read the entry CC(C)(C)NCC(O)c1ccc(/N=N/c2ccccc2)c(Cl)c1 (centres unmarked) [Compound 12c] and write its reported λmax (nm) PSS cis.
Reply | 428

Ask | Read the entry CC(C)(C)NCC(O)c1cc(Cl)c(/N=N/c2ccccc2)c(Cl)c1 (centres unmarked) [Compound 12b] and write its reported λmax (nm) PSS cis.
Reply | 417

Ask | Read the entry CC(C)(C)NCC(O)c1cc(Cl)c(/N=N/c2ccccc2)c(C#N)c1 (centres unmarked) [Compound 12e] and write its reported λmax (nm) PSS cis.
Reply | 426

Ask | Read the entry CC(C)(C)NCC(O)c1ccc(/N=N/c2ccccc2)cc1 (centres unmarked) [Compound 12a] and write its reported λmax (nm) PSS cis.
Reply | 425

Ask | Read the entry CC(C)(C)NCC(O)c1cc(Cl)c(/N=N/c2c(Cl)cccc2Cl)c(Cl)c1 (centres unmarked) [Compound 12d] and write its reported λmax (nm) PSS cis.
Reply | 441

###

- TARGET_ENTITY: human β2-AR (Homo sapiens, UniProt P07550, E27Q/G16R)
- Construct: Human β2AR (GenBank: NP_000015.1) in pcDNA3.1+ expression plasmid; membranes prepared
- Sequence (P07550 whole entry G16R/E27Q): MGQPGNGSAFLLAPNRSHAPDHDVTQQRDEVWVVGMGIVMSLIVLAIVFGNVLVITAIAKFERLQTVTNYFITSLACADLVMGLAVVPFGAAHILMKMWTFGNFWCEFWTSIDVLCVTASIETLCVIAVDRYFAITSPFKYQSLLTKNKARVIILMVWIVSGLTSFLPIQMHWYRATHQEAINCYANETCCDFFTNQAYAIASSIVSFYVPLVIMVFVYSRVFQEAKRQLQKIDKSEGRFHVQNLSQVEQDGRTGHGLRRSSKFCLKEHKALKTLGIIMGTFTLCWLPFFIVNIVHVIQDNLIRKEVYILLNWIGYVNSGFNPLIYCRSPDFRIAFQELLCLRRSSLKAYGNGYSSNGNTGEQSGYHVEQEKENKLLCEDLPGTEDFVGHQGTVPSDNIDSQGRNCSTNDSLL
- PROTOCOL_TEXT: [3H]DHA competition radioligand binding on HEK293T membranes
READOUT_TYPE: Ki (nM)
Give the number; nM is assumed, so skip it.

Ask | Name the value of Ki reported for CC(C)(C)NCC(O)c1cc(Cl)c(N)c(C#N)c1 (stereo not shown) when tested on human β2-AR (Homo sapiens, UniProt P07550, E27Q/G16R).
Reply | 20

###

- PROTOCOL_TEXT: UV/vis absorption spectra before and after illumination
- Format: physicochemical
- CONDITIONS: π–π* transition of trans isomer; 25 μM in HBSS buffer containing 1% DMSO
Field: λmax (nm) trans. Provide a value for each of the compounds that follow.
Give the number; nm is assumed, so skip it.

Ask | Read the entry CC(C)(C)NCC(O)c1ccc(/N=N/c2ccccc2)c(Cl)c1 (centres unmarked) [Compound 12c] and write its reported λmax (nm) trans.
Reply | 328

Ask | Read the entry CC(C)(C)NCC(O)c1cc(Cl)c(/N=N/c2ccccc2)c(Cl)c1 (centres unmarked) [Compound 12b] and write its reported λmax (nm) trans.
Reply | 306

Ask | Read the entry CC(C)(C)NCC(O)c1ccc(/N=N/c2ccccc2)cc1 (centres unmarked) [Compound 12a] and write its reported λmax (nm) trans.
Reply | 323

Ask | Read the entry CC(C)(C)NCC(O)c1cc(Cl)c(/N=N/c2c(Cl)cccc2Cl)c(Cl)c1 (centres unmarked) [Compound 12d] and write its reported λmax (nm) trans.
Reply | 293

Ask | Read the entry CC(C)(C)NCC(O)c1cc(Cl)c(/N=N/c2ccccc2)c(C#N)c1 (centres unmarked) [Compound 12e] and write its reported λmax (nm) trans.
Reply | 331

###

- PROTOCOL_TEXT: Photostationary state composition by LC-MS at isosbestic point
- CONDITIONS: DMSO 10 mM, after 360 ± 20 nm (12d: 520 ± 12 nm), LC-MS at isosbestic point
READOUT_TYPE: PSS cis (% cis) (%)
Give the number; % is assumed, so skip it.

Ask | Read the entry CC(C)(C)NCC(O)c1cc(Cl)c(/N=N/c2c(Cl)cccc2Cl)c(Cl)c1 (stereo not shown) [Compound 12d] and write its reported PSS cis (% cis).
Reply | 38.5

Ask | Read the entry CC(C)(C)NCC(O)c1cc(Cl)c(/N=N/c2ccccc2)c(C#N)c1 (stereo not shown) [Compound 12e] and write its reported PSS cis (% cis).
Reply | 88.7

Ask | Read the entry CC(C)(C)NCC(O)c1ccc(/N=N/c2ccccc2)cc1 (stereo not shown) [Compound 12a] and write its reported PSS cis (% cis).
Reply | 94.6

Ask | Read the entry CC(C)(C)NCC(O)c1ccc(/N=N/c2ccccc2)c(Cl)c1 (stereo not shown) [Compound 12c] and write its reported PSS cis (% cis).
Reply | 97.6

Origin of measurements: paper PMC12225454
